Just for reference, the supplement of paper PMC10065799 is where these values come from.

test system: Fer (mouse); experiment: phosphorylation enrichment, bacterial display (enrichment ratio); higher = better substrate or ligand; peptides without Tyr show the background;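 also: 11-residue human phosphosite peptides and single-mutation variants displayed on the E. coli surface, counted by deep sequencing, each peptide's frequency after selection divided by its frequency in the unselected input library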;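 also: frequency after pTyr selection over input frequency; kinase dosed for 20-30% of maximal phosphorylation in three min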
Rule: phosphorylation enrichment under 0.5 gives Condition not met, otherwise Condition met.

Does the sequence LARDMDDKEYY [MET_Y1230_Y1230D] have recorded phosphorylation enrichment that is 0.5 or more? Condition met

Does the sequence KTDKKYLMIKE [BAG3_Y451_E455K] have recorded phosphorylation enrichment that is 0.5 or more? Condition not met

Does the sequence IVEYAYNDKAV [PUM3_Y259_I264V] have recorded phosphorylation enrichment that is 0.5 or more? Condition not met

Does the sequence LRIAVYHEILI [CREBBP_Y1450_T1447I] have recorded phosphorylation enrichment that is 0.5 or more? Condition met

Does the sequence VDSIEYEVASQ [SLC7A7_Y7_T5I] have recorded phosphorylation enrichment that is 0.5 or more? Condition not met

Does the sequence LLLLFYVVRYC [MPZ_Y177] have recorded phosphorylation enrichment that is 0.5 or more? Condition not met
